# measurement-description: Tissue distribution of curcumin and THC at necropsy 15 minutes post-infusion
# Design: species or system Beagle dogs
# stated-conditions: both sexes, beagle, dog, in vivo, 10 mg/kg, 8 hr infusion; H3PO4 stabilized; read-out: Kp [tissue]/[plasma], Muscle
# Description: The test article will be administered to 8 Beagle dogs by intravenous infusion over two hours (Part A) or eight hours (Part B) as shown in Table 6. Multiple samples of tissue weighing approximately 1 gram were removed and snap frozen in the presence or absence of phosphoric acid (H3PO4). For all tissue samples, the levels of curcumin and THC were determined using a method developed by the Bioanalytical Department at Nucro-Technics. […]
readout-label: Kp at 8 h
# output: bare number, no unit

Record summary for COc1cc(CCC(=O)CC(=O)CCc2ccc(O)c(OC)c2)ccc1O [THC, tetrahydrocurcumin] : reported Kp at 8 h = 0.0089

meta.source: patent US9170257B2
